# experimental target: T1, Mouse IL-11 (mouse, UniProt P47873 22-199, limits assumed)
# T1 construct: also called murine IL-11; recombinant murine IL-11
# T1 sequence (looked up): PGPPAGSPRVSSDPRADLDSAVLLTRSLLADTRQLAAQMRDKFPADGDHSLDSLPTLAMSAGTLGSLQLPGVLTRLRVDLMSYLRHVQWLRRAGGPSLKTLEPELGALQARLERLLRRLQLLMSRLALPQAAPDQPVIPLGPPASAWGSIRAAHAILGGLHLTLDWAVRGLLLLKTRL
# experimental details: ELISA
# Description: The soluble scFv were produced by recombinant expression in E. coli, and analysed for their ability to bind to human IL-11 and murine IL-11 by ELISA. Briefly, the respective antigen was coated to wells of an ELISA plate, the cell culture supernatant containing the respective scFv was added at a 1:2 dilution, and binding was detected.
outcome measure: mIL11 - average signal
Respond numerically, and do not add a unit to the figure.

YU100-D05 (antibody) QVQLQQSGGGVVQPGRSLRLSCAASGFTFSSYGMHWVRQAPGKGLEWVAVISYDGSNKYYADSVKGRFTISRDNSKNTLYLQMNSLRAEDTAVYYCAKIGATDPLDYWGQGTLVTVSSGSASAPKLEEGEFSEARVQSALTQPASVSGSPGQLITISCTGTNSDVGGYNYVSWYQQHPGKAPKLMIYDVSNRPSGVSNRFSGSKSGNTASLTISGLQAEDEADYYCCSYAGSYTWVFGGGTKLTVLGQPKAAPSVTLFPPSS :: 0.284
YU112-H01 (antibody) QVQLVESGGGVVQPGRSLRLSCAASGFTFGSYGMHWVRQAPGKGLEWVAVISYDGSNKYYADSVKGRFTISRDNSKNTLYLQMNSLRAEDTAVYYCAKGSYYFDYWGQGTLVTVSSGSASAPKLEEGEFSEARVETTLTQSPGTLSLSPGERATLSCRASQSVSSSYLAWYQQKPGQAPRLLIYGASSRATGIPDRFSGSGSGTDFTLTISSLQPDDFATYYCQQSYSTPTWTFGQGTKVEIK :: 1.18

Moving on to another binder below.
Input: Which measured mIL11 - average signal value corresponds to YU100-E05 (antibody) EVQLVQSGGGVVQPGRSLRLSCAASGFTFSSYGMHWVRQAPGKGLEWVAVISYDGSNKYYADSVKGRFTISRDNSKNTLYLQMNSLRAEDTAVYYCAKIGATDPLDYWGQGTLVTVSSGSASAPKLEEGEFSEARVQAVLTQPRSVSGSPGQSVTISCTGTSSDVGGYNYVSWYQQHPGKAPKLMIYDVSKRPSGVPDRFSGSKSGNTASLTISGLQAEDEADYYCCSYAGSYSWVFGGGTKLTVLGQPKAAPSVTLFPPSS ?
Output: 0.275
